From: patent US20190248902A1

Give measured % Change Compared to pH 7.4 + Calcium for each item. Keep answers brief.
# test target: T1, recombinant, soluble human ASGR-1 (human, UniProt P07306 62-291)
# T1 construct: biotinylated in the binning assay; also called soluble huASGR-1; Soluble ASGR-1 (Amgen)
# T1 sequence: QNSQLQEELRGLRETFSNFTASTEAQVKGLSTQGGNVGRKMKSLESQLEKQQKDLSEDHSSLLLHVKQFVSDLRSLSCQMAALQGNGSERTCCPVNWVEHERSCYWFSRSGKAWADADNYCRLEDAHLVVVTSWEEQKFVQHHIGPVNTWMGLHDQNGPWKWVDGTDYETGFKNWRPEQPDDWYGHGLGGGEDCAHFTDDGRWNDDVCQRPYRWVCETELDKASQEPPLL
# measurement description: Octet BLI dissociation, pH 7.4 minus calcium
Only the number, expressed in %, is required.

Task item: Find the measured % Change Compared to pH 7.4 + Calcium of 75G3 (antibody, V domains shown, hybridoma mAb) VH: QVQLQQWGAGLLKPSETLSLTCAVYGGSLSGSYWSWIRQPPGKGLEWIGEINLSGSTNYNPSLKSRVTISVDTSKSQFSLTLRSVTAADTAVYYCARDYGGLDYWGQGTLVTVSS VL: EIVLTQSPGTLSLSPGERATLSCRARQNVDSSYLAWYQQKPGQAPRLLIYGASSRATGIPDRFSGSGSGTDFTLTISRLEPEDFAVFYCQQYERSPWTFGQGTKVEIK and report it.
Reply: -1

Task item: Find the measured % Change Compared to pH 7.4 + Calcium of 6G7 (antibody, V domains shown, hybridoma mAb) VH: QVQLVESGGGVVQPGRSLRLSCAASGFTFSSYGMHWVRQTPGKGLEWVAIISYVGKNKYYADSVKGRFTISRDNSKNTLYLQMNSLRAEDTAVYYCARRGNSYGGYGMDVWGQGTTVTVSS VL: DIQMTQSPSSRSASVGDRVTITCQASQDISNYLNWCQQKPGKALKLLIYDASTLETGVPSRFSGSGSGTDFTFTISSVQPEDIATYYCQQYDNVPITFGQGTRLEIK and report it.
Reply: 8

Task item: Find the measured % Change Compared to pH 7.4 + Calcium of 160B12 (antibody, V domains shown, hybridoma mAb) VH: QVQLVESGGGVVQPGRSLRLSCAASGFTFSSYGMHWVRQAPGKGLEWVAVIWYDGSNKYYADSVKGRFTISRDNSKNTLYLQMNSLRAEDTAVYYCARDRVSCSSTSCPYYYYYGMDVWGQGTTVTVSS VL: SDELTQSPSVSVSPGQTASITCSGDKLGDKYVCWYQQKPGQSPVLVIYQDSKRPSGIPERFSGSNSGNTATLTISGTQALDEADYYCQAWGNSSFVVFGGGTKLTVL and report it.
Reply: 6

Task item: Find the measured % Change Compared to pH 7.4 + Calcium of 184E7 (antibody, V domains shown, hybridoma mAb) VH: QVQLVQSGAEVKTPGASVKVSCRASGYTFTSYNMHWVRQVPGQGLEWMGWINPNNGGSNYTQKFQGRVTMTRDTSISTAYMELSRLRSDDTAVYYCARKFGDWGQGTLVTVSS VL: DIQMTQSPSSRSASIGERVTITCRASQGISNYLAWIQQKPGTAPKSLIYAASSLQSGVSSRFSGSGFGTDFTITISSVQREDFATYYCQQYNGYPFTFGHGTKVDIK and report it.
Reply: 1

Task item: Find the measured % Change Compared to pH 7.4 + Calcium of 224G1 (antibody, V domains shown, hybridoma mAb) VH: QVQLVQSGAEVKKPGASVKVSCKASGYTFTGYYIHWVRQAPGQGLEWMGWINPYSGDTNYAQKFQGRVTMTRDTSISTAYMELSRLRFDDTAVFYCARDWGGYSSYYYGMDVWGQGTTVTVSS VL: DIVMTQTPLSLSVTPGQPASISCKSGQSLLHSDGKTFLSWYLQKPGQPPQLLIYEISNRFSGVPDRFSGSGSGTDFTLKISRVEAEDVGIFYCMQSTQLPRTFGQGTKVEIK and report it.
Reply: 77
